- Tested on: Escherichia coli TOP10;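 further: peptides expressed intracellularly from a pBAD plasmid library in pooled LB shake-flask culture, induced with 0.3% L-arabinose, DNA abundance read by NGS, three biological replicates, DESeq2 with apeglm shrinkage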
- Protocol Details: shrunken log2 fold change of peptide-encoding DNA abundance (4.5 h post-induction vs induction); higher = less antimicrobial activity (less host growth inhibition)
- Condition: time post-induction: 4.5 h; library: site-saturation at positions 5, 18, 19, 20
Outcome Measure: shrunken log2 fold change
Respond using a number only.

Some solved cases for reference:
Macromolecule Sequence | Measurement Target | Recorded Result
RRIRTRPPRLPRPRPRPWDRPRP | Escherichia coli TOP10 | -0.105
RRIRYRPPRLPRPRPRPPAPPRP | Escherichia coli TOP10 | 0.76
RRIRQRPPRLPRPRPRPSGNPRP | Escherichia coli TOP10 | -0.323
RRIRIRPPRLPRPRPRPESAPRP | Escherichia coli TOP10 | 0.0116
RRIRLRPPRLPRPRPRPLTTPRP | Escherichia coli TOP10 | -0.0027

(Q) # input sequence: RRIRPRPPRLPRPRPRPVIRPRP ; wanted: its shrunken log2 fold change
(A) -0.074

(Q) # input sequence: RRIRTRPPRLPRPRPRPRHWPRP ; wanted: its shrunken log2 fold change
(A) 0.0182

(Q) # input sequence: RRIRARPPRLPRPRPRPVGKPRP ; wanted: its shrunken log2 fold change
(A) 0.196
